These measurements were taken from ChEMBL document CHEMBL4619717.

What log10 of IC50 was measured for each of the following?
# ASSAYED_SYSTEM: UniProtKB P07943
Values are log10 of IC50 in µM.

Asked: Identify measured log10 of IC50 corresponding to O=C(NO)c1cn(Cc2ccc(F)cc2)c2ccccc2c1=O
Given back: -0.63

Asked: Identify measured log10 of IC50 corresponding to O=C(O)c1cn(Cc2cc(O)cc(O)c2)c2ccccc2c1=O
Given back: -1.24

Asked: Identify measured log10 of IC50 corresponding to COc1ccc(Cn2cc(C(=O)O)c(=O)c3ccccc32)cc1
Given back: 1.08

Asked: Identify measured log10 of IC50 corresponding to COc1cc(Cn2cc(C(=O)NO)c(=O)c3ccccc32)cc(OC)c1
Given back: 1.19

Asked: Identify measured log10 of IC50 corresponding to COc1cc(Cn2cc(C(=O)O)c(=O)c3ccccc32)cc(OC)c1
Given back: 0.99
